B1: CPEB3 Ribozyme (parent)
chain: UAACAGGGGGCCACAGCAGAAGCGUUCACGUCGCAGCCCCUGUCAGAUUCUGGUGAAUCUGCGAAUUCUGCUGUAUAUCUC

# Variants of: B1
# Test summary: self-cleavage, relative activity (ratio to wild type); higher = more cleavage; in vitro, sequencing
self-cleavage below 0.2 gives False; self-cleavage at or above it gives True.

# example entries with known answers
A45C U76A; True
A21U A64U; False
A56G G61A; True

**Q:** Test whether the variant A20U U41G records self-cleavage of 0.2 or higher.
**A:** True

**Q:** Test whether the variant U25C G55C records self-cleavage of 0.2 or higher.
**A:** True

**Q:** Test whether the variant A13U U58C records self-cleavage of 0.2 or higher.
**A:** True

**Q:** Test whether the variant U26G C44A records self-cleavage of 0.2 or higher.
**A:** True

**Q:** Test whether the variant G33C U54C records self-cleavage of 0.2 or higher.
**A:** False

**Q:** Test whether the variant G24A U26A records self-cleavage of 0.2 or higher.
**A:** False

**Q:** Test whether the variant U51C G63U records self-cleavage of 0.2 or higher.
**A:** True

**Q:** Test whether the variant A18U A64G records self-cleavage of 0.2 or higher.
**A:** True

**Q:** Test whether the variant U26A G70A records self-cleavage of 0.2 or higher.
**A:** True

**Q:** Test whether the variant G46U U60C records self-cleavage of 0.2 or higher.
**A:** False

**Q:** Test whether the variant G61C U66C records self-cleavage of 0.2 or higher.
**A:** True

**Q:** Test whether the variant A45U C81A records self-cleavage of 0.2 or higher.
**A:** True

Source of measurements: the RNAGym collection of RNA variant scans (doi:10.1093/nar/gkz1192)
